Tgt: T1, human myostatin (mature, recombinant; R&D Systems) (human, UniProt O14793 267-375)
T1 sequence: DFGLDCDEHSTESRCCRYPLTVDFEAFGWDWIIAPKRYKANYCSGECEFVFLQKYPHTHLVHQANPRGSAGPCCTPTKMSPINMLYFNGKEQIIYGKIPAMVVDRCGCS
Method description: cell-based or functional assay
Measured ARE-luciferase IC50 by item

Req: Could you tell me which ARE-luciferase IC50 is on file for 2525_B01 (designed binder) MGVSDVPRDLEVVAATPTSLLISWTLPNFGLINYYRITYGETGGNSPVQEFTVPGRGVTATISGLKPGVDYTITVYAVTITKSTIIIYKPISINYRTEIDKPSQHHHHHH ?
Resp: 0.11 nM

Req: I have this binder here, 3008_G03 (designed binder) MGVSDVPRDLEVVAATPTSLLISWSLPHPGLGHYYRITYGETGGNSPVQEFTVPGRGVTATISGLKPGVDYTITVYAVTITPETIIVYKPISINYRTEIDKPSQHHHHHH , and I need its recorded ARE-luciferase IC50.
Resp: 0.09 nM
